Experiment: Cytotoxicity against human PC3 cells assessed as reduction in cell viability after 72 hrs by MTT assay
Assay type: functional, cell-based
Settings: PC-3, 72 h
So I've got a bunch of molecules here, and I need their pIC50 values.
One number for each entry, as −log10 of the molar value.

* CC(=O)O[C@H]1C(=O)[C@@]2(C)[C@H]([C@H](OC(=O)c3ccccc3)[C@]3(O)C[C@H](OC(=O)[C@H](O)[C@@H](NC(=O)c4ccccc4)c4ccccc4)C(C)=C1C3(C)C)[C@]1(OC(C)=O)CO[C@@H]1C[C@@H]2O [PACLITAXEL] | 7.52

Here is another molecule to look at.
What does the record list as pIC50 for CO[C@@]12C=C3C(=O)c4c(O)cc5c(c4O[C@@]34[C@@H]1C(C)(C)O[C@@]4(CC=C(C)C)C2=O)C=CC(C)(C)O5 ?
5.34

---

Assay: Cytotoxicity against human PC3 cells assessed as reduction in cell viability after 72 hrs by MTT assay
Assay type: functional, cell-based
Conditions: PC-3, 72 h
parameter: IC50

The examples below pair each entry with its known result.
* CC(C)=CCC1(C(=O)O)CC(=C(C)C)C(=O)c2oc3c4c(cc(O)c3c(=O)c21)OC(C)(C)C=C4 (racemic) | > 10 µM
* CC(C)=CCc1c(O)c(O)c(O)c2oc3c4c(cc(O)c3c(=O)c12)OC(C)(C)C=C4 | > 10 µM

Now for the compound whose IC50 we want.
Name the reported IC50 value associated with the compound CC(C)=CCc1c(O)cc(O)c2c(=O)c3c(oc12)C(CC=C(C)C)(CC=C(C)C)C(=O)C(O)=C3
> 10 µM
